Tested on: MCF7 breast
Test description: NCI-60 one-dose screen, 48 h
Condition description: 10 µM
This is part of a sample that, as a whole, favours compounds with a hit. Of some 83,000 tested, about 20% had one in any assay. Calls of active or inactive are those of the source. How the source made its calls: active means growth percent below 10; inactive means the rest.
Respond with a class label; see true for active, false for inactive

Solved entries:
COc1ccc(C(C#N)=C2C=CC(=NO)C=C2)cc1 : false
O=S(=O)(c1cc(Cl)ccc1O)c1cc(Cl)ccc1O : false
COc1ccc2oc(-c3ccc(Cl)cc3)c(N3CCN(C)CC3)c2c1 : true
COc1cccc(C(c2cc3c(cc2O)OCO3)N2CCOCC2)c1OC (stereo unspecified) : false
CN(CC(=O)O)c1ccc(/C=C/c2ccnc3ccccc23)cc1 : false
S=P(N1CC1)(N1CC1)N1CC1 : false
N#CC(=C1C=CC(=NO)C=C1)c1ccccc1 : true
CCOC(=O)[C@]1(Br)CC[C@@]1(Br)C(=O)OCC : false

Ask | Call for entry O=[N+]([O-])c1cc(S(=O)(=O)Nc2ccccc2)ccc1Cl :
Reply | false

Ask | Call for entry Cc1cc(O)c2c(c1O)C(=O)C13C(=C2O)C(=O)C2C(O)C1C1C(O)C3C(=O)C3=C(O)c4c(O)cc(C)c(O)c4C(=O)C321 (stereo unspecified) :
Reply | true

Ask | Call for entry C=C1N(C)c2ccc(Cl)cc2C1(C)C :
Reply | false

====

Test system: NCI-H460 lung
Test description: NCI-60 one-dose screen, 48 h
Condition description: 10 µM
The panel holds about 83,000 compounds, 20% with a hit somewhere; the sample as a whole holds those more often. Activity calls are given as the source filed them. Rule for the calls: active = growth percent below 10; inactive = the rest.
Respond with a class label; see 1 (yes) (active), 0 (no) (inactive)

COc1ccc2oc(-c3ccc(Cl)cc3)c(N3CCN(C)CC3)c2c1 : 1 (yes)

Ask | Call for entry CC[C@@]1(OC(=O)CN(C)C)C(=O)OCc2c1cc1n(c2=O)Cc2cc3c(N)cccc3nc2-1 :
Reply | 1 (yes)

Ask | Call for entry Nc1nc(N)c2cc(Sc3ccc4ccccc4c3)ccc2n1 :
Reply | 0 (no)

Ask | Call for entry COc1ccc2c(c1)[nH]c1c(/C=C/c3ccccc3)nccc12 :
Reply | 0 (no)

Ask | Call for entry COc1cc(N)ccc1Nc1c2ccccc2nc2ccccc12 :
Reply | 1 (yes)

Ask | Call for entry CN(C)c1ccc(/C=C/c2ccnc3ccccc23)cc1N :
Reply | 0 (no)

====

Test system: IGROV1 ovarian
Test description: NCI-60 one-dose screen, 48 h (100 = growth as untreated, 0 = no growth, -100 = all killed)
Condition description: 10 µM
This is part of a sample that, as a whole, favours compounds with a hit. Of some 83,000 tested, about 20% had one in any assay.
Tick T if growth is 90% or greater. Tick F if growth is less than 90%.

Solved entries:
O=C1C=CC(=O)N1c1ccc(N2C(=O)C=CC2=O)cc1 : T
O=[N+]([O-])c1cc(S(=O)(=O)Nc2ccccc2)ccc1Cl : T
Cc1cc(Cl)ccc1NC(=O)/C(Cl)=C1/Sc2ccccc2NC1=O : F
N#C/C(=C/N1C(=O)/C(=C/c2ccc([N+](=O)[O-])cc2)SC1=S)c1nc2ccccc2s1 : F

Ask | Does the compound O=C(NC(=S)Nc1ccccn1)c1ccccc1 have recorded growth that is 90% or more?
Reply | F

====

Tested on: NCI-H522 lung
Test description: NCI-60 one-dose screen, 48 h
Condition description: 10 µM
This is part of a sample that, as a whole, favours compounds with a hit. Of some 83,000 tested, about 20% had one in any assay. Calls of active or inactive are those of the source. The calls were made as follows: active = growth percent below 10; inactive = the rest.
Respond with a class label; see active, inactive

Cc1cc(N=C2C=CC(=[N+](C)C)C=C2)c(N)cc1N : inactive
O=C1c2cccc3cc([N+](=O)[O-])cc(c23)C(=O)N1CCN1CCCC1 : active
C=C1N(C)c2ccc(Cl)cc2C1(C)C : inactive

Ask | Call for entry COc1ccc2oc(-c3ccc(Cl)cc3)c(N3CCN(C)CC3)c2c1 :
Reply | active

Ask | Call for entry O=[N+]([O-])c1cc(S(=O)(=O)Nc2ccccc2)ccc1Cl :
Reply | inactive

Ask | Call for entry CCC(=O)Oc1ccc(/C=N/NC(N)=S)nc1 :
Reply | inactive

Ask | Call for entry CCOC(=O)[C@]1(Br)CC[C@@]1(Br)C(=O)OCC :
Reply | active

Ask | Call for entry COc1ccc2c(c1)[nH]c1c(/C=C/c3ccccc3)nccc12 :
Reply | inactive

Ask | Call for entry COc1ccc(N)c2c1C(=O)c1ccccc1C2=O :
Reply | inactive

Ask | Call for entry N#C/C(=C/N1C(=O)/C(=C/c2ccc([N+](=O)[O-])cc2)SC1=S)c1nc2ccccc2s1 :
Reply | inactive

Ask | Call for entry Cc1c(-c2ccccc2)[nH]c2ccccc12 :
Reply | inactive

====

Tested on: UACC-62 melanoma
Test description: NCI-60 one-dose screen, 48 h (100 = growth as untreated, 0 = no growth, -100 = all killed)
Condition description: 10 µM
Procedure: Growth inhibition of the UACC-62 human tumor cell line is measured as a screen for anti-cancer activity. Cells are grown in 96 well plates and exposed to the test compound for 48 hours. Compounds are tested at a single concentration, which is 10^-5 M for most compounds. The reported endpoint is percent growth (GI% or GIPRCNT), where numbers from 0 - 100% represent growth inhibition, and numbers from -100% - 0 represent cell death. For example, a value of 40 represents 60% growth inhibition. […]
The panel holds about 83,000 compounds, 20% with a hit somewhere; the sample as a whole holds those more often.
Criterion: growth strictly less than 70%. Met: condition met. Not met: condition not met.

Solved entries:
CN(CC(=O)O)c1ccc(/C=C/c2ccnc3ccccc23)cc1 : condition not met
COc1ccc(C(C#N)=C2C=CC(=NO)C=C2)cc1 : condition met
Nc1nc(N)c2cc(Sc3ccc4ccccc4c3)ccc2n1 : condition met
CCOC(=O)[C@]1(Br)CC[C@@]1(Br)C(=O)OCC : condition not met
COc1ccc2oc(-c3ccc(Cl)cc3)c(N3CCN(C)CC3)c2c1 : condition met

Read the next record carefully.
Ask | Determine whether this compound shows growth lower than 70% (ties excluded): Cn1ncc2cc3c(Nc4ccc(Cl)cc4)cccc3nc21
Reply | condition not met

====

Consider the following molecules; for each one, report its growth.
Test system: OVCAR-8 ovarian
Test description: NCI-60 one-dose screen, 48 h (100 = growth as untreated, 0 = no growth, -100 = all killed)
Condition description: 10 µM
Description: Growth inhibition of the OVCAR-8 human tumor cell line is measured as a screen for anti-cancer activity. Cells are grown in 96 well plates and exposed to the test compound for 48 hours. Compounds are tested at a single concentration, which is 10^-5 M for most compounds. The reported endpoint is percent growth (GI% or GIPRCNT), where numbers from 0 - 100% represent growth inhibition, and numbers from -100% - 0 represent cell death. For example, a value of 40 represents 60% growth inhibition. […]
About 83,000 compounds went through this panel and 20% of them were active in at least one assay; those are over-represented in the sample as a whole.
One number for each entry, in %.

Below, each entry is followed by its recorded growth result.
S=C1SCN(CCc2ccccc2)CN1CCc1ccccc1 : 100
Nc1nc(N)c2cc(Sc3ccc4ccccc4c3)ccc2n1 : 34.8
O=[N+]([O-])c1cc(S(=O)(=O)Nc2ccccc2)ccc1Cl : 91.5
O=C1c2ccccc2CCC1(Br)Br : 38.6
CCC(=O)Oc1ccc(/C=N/NC(N)=S)nc1 : 23.5

Can you give me growth for all of these, one by one?
1. ClCCn1c(CCl)nc2ccc(Cl)cc21
2. CN(C)CCNc1cccc2sc3ccc(O)cc3c(=O)c12
3. O=C(CNS(=O)(=O)Cc1ccccc1)NNc1ccccc1
4. CCOC(=O)[C@]1(Br)CC[C@@]1(Br)C(=O)OCC

Reply |
[-33, 36, 58.4, 95.6]

Can you give me growth for all of these, one by one?
1. C=C1N(C)c2ccc(Cl)cc2C1(C)C
2. O=C1C=CC(=O)N1c1ccc(N2C(=O)C=CC2=O)cc1
3. O=C(O)c1ccccc1.[Ag]
4. CCC(C)(c1ccc(O)c(C)c1)c1ccc(O)c(C)c1

Reply |
1. 67.9
2. 109
3. 96.8
4. 103

====

Test system: OVCAR-4 ovarian
Test description: NCI-60 one-dose screen, 48 h
Condition description: 10 µM
The panel holds about 83,000 compounds, 20% with a hit somewhere; the sample as a whole holds those more often. The source made the active and inactive calls. The calls were made as follows: active = growth percent below 10; inactive = the rest.
Respond with a class label; see label 1 (active), label 0 (inactive)

O=C1c2cccc3cc([N+](=O)[O-])cc(c23)C(=O)N1CCN1CCCC1 : label 1

Ask | Call for entry COc1ccc(C(C#N)=C2C=CC(=NO)C=C2)cc1 :
Reply | label 0

Ask | Call for entry ClCCn1c(CCl)nc2ccc(Cl)cc21 :
Reply | label 1

Ask | Call for entry Cc1cc(C)c(N2C(=O)CC(Sc3ccccc3N)C2=O)c(C)c1 (stereo not given) :
Reply | label 0

Ask | Call for entry CN(C)CCNc1cccc2sc3ccc(O)cc3c(=O)c12 :
Reply | label 0
